Test: NCI Yeast Anticancer Drug Screen. Data for the mec2-1 strain (AID 157)
Settings: S. cerevisiae mec2-1 strain, at 5.0 µM (retest, dose inferred, filed as 0.5), stronger effect = higher value
This is part of a sample that, as a whole, favours compounds with a hit. Of some 79,000 tested, about 15% had one in any assay.
Listed here: items and their measured growth inhibition.

Compound	growth inhibition, %
CCOC(=N)c1ccc(O)c(OC)c1	-42
O=C(CC(=O)n1nc(-c2ccccc2)c(N=Nc2ccc(Cl)cc2)c1-c1ccccc1)Nc1cccc(Cl)c1	-4
O=C1c2cccnc2C(=O)C2C3C=CC(C3)C12 (stereo unspecified)	37
CC1CC[C@]2(C(=O)O)CCC3(C)C(=CC(=O)C4[C@@]5(C)CCC(=O)C(C)(C)C5CC[C@]43C)[C@@H]2[C@H]1C (stereo partly specified)	26
NC(=O)c1c([N+](=O)[O-])cc(C(F)(F)F)cc1[N+](=O)[O-]	18
c1ccc(Cc2cc(-c3ccccc3)n[nH]2)cc1	-51

----------
Assay: NCI Yeast Anticancer Drug Screen. Data for the mlh1 rad18 strain (AID 175)
Details: S. cerevisiae mlh1 rad18 strain growth inhibition; at 5.0 µM (retest, dose inferred, filed as 0.5); stronger effect = higher value
This is part of a sample that, as a whole, favours compounds with a hit. Of some 79,000 tested, about 15% had one in any assay.

Molecule	growth inhibition (%)
OC(/C=C/c1ccccc1)(Cc1cc(-c2ccccc2)n[nH]1)c1ccccc1 (stereo unspecified)	18
COC(=O)Oc1cc(Cl)c(Cl)cc1Cl	7
CCOC(=O)COc1c(OC)cc(C2C3=C(COC3=O)Oc3cc4c(cc32)OCO4)cc1OC (stereo unspecified)	-10
CCC(C)NC1=NCC(C)S1 (stereo unspecified)	47
Oc1ccc(-c2nc(-c3ccc(F)cc3)c(-c3ccc4ccccc4n3)[nH]2)cc1	27
CN(C)c1nc(=Nc2cccc(Cl)c2)ss1	89
COc1ccc(C/C=N/Nc2ccc([N+](=O)[O-])cc2)cc1OC	7
O=C(/C=C/c1cc(Cl)cc(Cl)c1O)c1cccc(O)c1	46
C(=Nc1ccc(-c2cc(-c3ccccc3)nc3ccc4ccccc4c23)cc1)c1ccccc1	20
O=C(O)c1cc2ccccc2c2c1C(=O)c1ccccc1-2	22
NC(=O)C(=O)NNc1ccccc1	45
O=C(O)CNC(=S)Nc1ccccc1	33
CCCCCCC(O)CNCc1ccnc2ccc(OC)cc12 (stereo unspecified)	21
COC(=O)/C=C(/C(=O)OC)C(Cl)(Cl)Cl	70
COC(=O)/C=C(/CC(=O)OC)C(=O)OC	33
CC(C)c1ccc(NC(=S)NC(=O)c2ccccc2)cc1	5
CC(C)=NOC(=O)Nc1ccc(Cl)cc1	61
CN(C)[C@@H]1C(=O)C(C(N)=O)=C(O)[C@@]2(O)C(=O)C3=C(O)c4c(O)cccc4C[C@H]3C[C@@H]12	38
O=[N+]([O-])c1cc(F)c(F)cc1Sc1cc(F)c(F)cc1[N+](=O)[O-]	82
CCC(C)OC(=O)Nc1ccc(C)c(NC(=O)OC(C)CC)c1 (stereo unspecified)	12
N#CNC(N)=Nc1cc2ccccc2c2ccccc12	54

----------
Test: NCI Yeast Anticancer Drug Screen. Data for the CLN2oe strain (AID 163);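 also: 0% = growth of vehicle-only control cultures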
Conditions: S. cerevisiae CLN2oe strain, at 33.0 µM, stronger effect = higher value
About 79,000 compounds went through this panel and 15% of them were active in at least one assay; those are over-represented in the sample as a whole.
Listing of entries alongside the reported growth inhibition.

Compound	growth inhibition (%)
CC(C)CN(CC(C)C)C(=O)c1ccc(Cl)c(Cl)c1	41
COC(=O)CC1(O)C(/C=C/c2ccccc2)C(C(=O)OC)C(=O)C(C(=O)OC)C1C(=O)OC (stereo not drawn)	-7
O=[N+]([O-])c1cc(Cl)cnc1Br	4
Nc1ccn(C2OC(COP(=O)(O)O)C(O)C2O)c(=O)n1 (stereo not drawn)	-15
OC(CCNCc1ccccc1)c1ccc2ccccc2c1 (stereo not drawn)	80
Oc1[nH]c2ccccc2c1N=NC(=S)N1CCCCC1	98
CN(C)c1ccc(C2CC(C)(O)Oc3cc4c(cc32)OCO4)cc1 (stereo not drawn)	-3
Cc1cc(C(C)(C)C)c(OCCCN2CCOCC2)c(C(C)(C)C)c1	-17
CN(CCN(C)Cc1ccccc1)Cc1ccccc1	18
COc1cc(O)c2c(c1O)C(=O)c1cc(C)ncc1C2=O	10
Cc1cc(C(C)(C)CC(C)(C)C)ccc1O	98
Oc1ccc(-c2nc(-c3ccc(F)cc3)c(-c3ccc4ccccc4n3)[nH]2)cc1	98
CNC(=O)OCc1c(COC(=O)NC)c2n(c1C)-c1ccc(OC)cc1CCC2	87

----------
Test: NCI Yeast Anticancer Drug Screen. Data for the mgt1 strain (AID 153)
Details: S. cerevisiae mgt1 mutant growth inhibition; at 1.2 µM; stronger effect = higher value
Description: Growth inhibition of yeast strains with defined genetic alterations is measured as a screen for potential anti-cancer activity. Selected strains with alterations in DNA damage repair or cell cycle control were exposed to compounds and growth inhibition was measured relative to vehicle treated controls. The strain used in this assay is mgt1
This is part of a sample that, as a whole, favours compounds with a hit. Of some 79,000 tested, about 15% had one in any assay.

Compound	Output unit	growth inhibition
O=[N+]([O-])c1cccc2nc3ccccc3c(NCCC[N+]3([O-])CCCCC3)c12	%	0
CCCCCOC(=S)SC(=O)OCC	%	-4
c1ccc(-c2cnc3ccccc3c2)cc1	%	-5
CCCCCCOC(=O)NCCOC(=O)Nc1ccccc1	%	-1
O=c1ccc2ccccc2c2ccccc12	%	3
O=C(O)c1ccc(N2C(=O)C=CC2=O)cc1	%	1
O=C1C(Br)=C(c2ccccc2)O/C1=C/C(=O)c1ccc(Br)cc1	%	2
O=C1CC(=O)c2ccccc21	%	-1
CC1CC[C@]2(C(=O)O)CCC3(C)C(=CC(=O)C4[C@@]5(C)CCC(=O)C(C)(C)C5CC[C@]43C)[C@@H]2[C@H]1C (stereo not given in full)	%	4
O=c1[nH]c(-c2ccccc2)nc2c1sc1nc3ccccc3n12	%	-20
Cc1cc(N(CCOS(C)(=O)=O)CCOS(C)(=O)=O)ccc1C=Nc1ccc(-c2csc(-c3ccccc3)n2)c(Cl)c1	%	13
COc1cccc(/C=N/C(/N=C/c2cccc(OC)c2O)c2cccc(OC)c2O)c1O	%	-1
Cc1cc(=O)oc2c(C)c3occc(=O)c3cc12	%	-5
CN(C)CCCCN1c2ccccc2Sc2ccc(N=[N+]=[N-])cc21	%	19
Cc1cc(O)c(C(C)C)cc1C1(c2cc(C(C)C)c(O)cc2C)OC(=O)c2ccccc21	%	-1
Nc1ncnc2c1ncn2C1OC(CO)CC1O (stereo not given)	%	-37
N=C1N=Nc2nc(C3(c4nc5n(c4O)C(=N)N=N5)Cc4ccccc4C3=O)c(O)n21 (stereo not given)	%	5
Nc1ncc(-c2ccc(Br)cc2)s1	%	1
O=[N+]([O-])c1ccc2c(c1)/C(=N/N=C1c3ccccc3Cc3ccccc31)c1cc([N+](=O)[O-])cc([N+](=O)[O-])c1-2	%	16
Nc1ccn(C2OC(COP(=O)(O)O)C(O)C2O)c(=O)n1 (stereo not given)	%	2

----------
Assay: NCI Yeast Anticancer Drug Screen. Data for the rad52 strain (AID 147);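 also: 0% = growth of vehicle-treated control cultures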
Settings: S. cerevisiae rad52 mutant growth inhibition; at 33.0 µM
The panel holds about 79,000 compounds, 15% with a hit somewhere; the sample as a whole holds those more often. The source made the active and inactive calls. Rule as the data show it: active = growth inhibition above about 70%; inactive = the rest.
Outcomes: T for active, F for inactive

Compound	Qualitative label
O=C(NO)Nc1cc(Cl)cc(Cl)c1	T
C(=Nc1ccc(-c2cc(-c3ccccc3)nc3ccc4ccccc4c23)cc1)c1ccccc1	F
CCOC1=C/C(=N\Nc2ccc([N+](=O)[O-])cc2)CCC1	F
COc1cc2cc3c4cc(OC)c(OC)cc4cc[n+]3c(C)c2cc1OC	F
Nc1ccc2c(c1)C(=O)c1ccc(F)cc1-2	F
COc1cc(/C=N/Nc2nnc3c4ccccc4c4ncccc4c3n2)cc(OC)c1OC	T
CC(C)(C)CC(C)(C)c1cc(O)c(O)c(CN2CCCCC2)c1	F
CC1=CC(=C(c2ccc(N)cc2)c2ccc(N)cc2)C=CC1=N	F
O=C1/C(=C/c2ccccc2)CCCC1CN1CCCCC1 (stereo not drawn)	T
CC1=NOC(=O)/C1=C/c1ccc2c(c1)OCO2	F
COc1cc(O)c(O)c(C(C)(C)C)c1	F
Cc1cccc2c1nc1ccc(Cl)cc1[n+]2C	T
CCCCCCSc1ncnc2[nH]ncc12	F
CC(C)C(C)/C=C\C(C)C1CCC2C3=CC=C4CC(O)CCC4(C)C3CCC21C (stereo not drawn)	F
CN(C)N=Nc1ccccc1C(=O)NC#N	T
CCc1nc2ccc(NCCN(C)C)c3c(=O)c4ccccc4n1c23	T
O=C(COC(=O)c1ccccc1)c1ccc(Br)cc1	T
COc1ccc(C/C=N/Nc2ccc([N+](=O)[O-])cc2)cc1OC	F
O=C(O)CCCC1CCCc2c1ccc1ccccc21 (stereo not drawn)	T
Oc1[nH]c2ccccc2c1N=NC(=S)N1CCCCC1	T
CCOC(=O)C#Cc1ccc([N+](=O)[O-])cc1	F
O=C1N=C2SC=C(NC(=S)Nc3ccccc3)N2NC12c1ccccc1-c1ccccc12	F
CC(O)=NC(Cc1ccc2ccccc2c1)C(O)=NC(Cc1ccc(Cl)cc1)C(O)=NC(Cc1c[nH]c2ccccc12)C(O)=NC(CO)C(O)=NC(Cc1ccc(O)cc1)C(O)=NC(CCCN=C(N)N)C(O)=NC(CC(C)C)C(O)=NC(CCCN=C(N)N)C(=O)N1CCCC1C(O)=NC(C)C(=N)O (stereo not drawn)	F
O=[N+]([O-])c1cc[n+]([O-])cc1	F
COc1cccc2c1C(=O)c1c(O)c3c(c(O)c1C2=O)C[C@@](O)(C(C)=O)C[C@@H]3OC1CC(OC(C)=O)C(OC(C)=O)C(C)O1 (stereo partly drawn)	F
Oc1ccc2ccccc2c1CCc1c(O)ccc2ccccc12	T
O=C(CSC(=S)N1CCCCC1)Nc1nc2c(s1)CCCC2	F
CC(/C=C/c1ccccc1)=N\NC(N)=S	F
O=C1OC(C2=CC(=O)c3ccccc3C2=O)C(Cl)=C1Cl (stereo not drawn)	T
CC(C)c1ccc(NC(=S)NC(=O)c2ccccc2)cc1	F
COc1cc([C@@H]2c3cc4c(cc3[C@H](OC3OC5COC(C(C)C)OC5C(O)C3O)C3COC(=O)[C@@H]32)OCO4)cc(OC)c1O (stereo partly drawn)	F
COc1c(O)c(C=O)c(Br)c(C=O)c1O	F
Oc1ccc(SCc2ccc(NCc3ccccc3)cc2)cc1	F
O=C1OC(OC/C(Br)=C(\Br)COC2OC(=O)C(Cl)=C2Cl)C(Cl)=C1Cl (stereo not drawn)	F
CS(=O)(=O)SCc1ccc([N+](=O)[O-])cc1	T
O=Cc1ccc2c(c1)C(=O)c1ccccc1C2=O	T
O=C(NCCCl)Sc1ccc(Cl)cc1	F
CC1=C(SCc2ccccc2)C(=O)c2ccccc2C1=O	T

Numbers sourced from PubChem BioAssay (NCI).
